assay: Microsomal metabolic stability assay; type: in vitro ADME; details: pH 7.4; human liver microsomes, 0.5 mg/mL protein, 1 μM compound; read-out: Human LM T½
Mark 1 only for half-life at 1 μM values smaller than 1 h; exact matches and larger values are 0.

compound	class-name
CNC(=O)c1nnc2cc1Nc1cc(cc(-c3ncn(C)n3)c1OC)COCc1cccc(n1)N2	0
[2H]C([2H])([2H])NC(=O)c1cnc(NC(=O)C2CC2)cc1Nc1cn(C)c2ncn([C@H](C)C(F)(F)F)c(=O)c12 (single isomer, unassigned) [Example 234A]	1
CCn1ccc2c(c(Nc3cc(Nc4ccc(F)cn4)ncc3C(=O)NC)cn2C)c1=O	1
[2H]C([2H])([2H])NC(=O)c1cnc(NC(=O)C2CC2)cc1Nc1cn(CCOC)c2ccn(CC)c(=O)c12	0
[2H]C([2H])([2H])NC(=O)c1cnc(NC(=O)C2CC2)cc1Nc1ccc2cnn(CC)c2c1OC	0

* * *

biological target: Ba/F3-TEL-JAK2 cells (Homo sapiens); construct: fused on or other part: Dimerization domain of TEL (ETV6) fused to the JAK2 kinase domain; P41212 (Transcription factor ETV6); experiment: Anti-proliferative assay, Ba/F3-TEL-JAK2 cells (Cell-Titer Glo); assay type: cell-based; settings: 72 h, read-out: BaF3-TEL-JAK2 IC50
Sequence (O60674 whole entry, change not shown, the tested form may be a part): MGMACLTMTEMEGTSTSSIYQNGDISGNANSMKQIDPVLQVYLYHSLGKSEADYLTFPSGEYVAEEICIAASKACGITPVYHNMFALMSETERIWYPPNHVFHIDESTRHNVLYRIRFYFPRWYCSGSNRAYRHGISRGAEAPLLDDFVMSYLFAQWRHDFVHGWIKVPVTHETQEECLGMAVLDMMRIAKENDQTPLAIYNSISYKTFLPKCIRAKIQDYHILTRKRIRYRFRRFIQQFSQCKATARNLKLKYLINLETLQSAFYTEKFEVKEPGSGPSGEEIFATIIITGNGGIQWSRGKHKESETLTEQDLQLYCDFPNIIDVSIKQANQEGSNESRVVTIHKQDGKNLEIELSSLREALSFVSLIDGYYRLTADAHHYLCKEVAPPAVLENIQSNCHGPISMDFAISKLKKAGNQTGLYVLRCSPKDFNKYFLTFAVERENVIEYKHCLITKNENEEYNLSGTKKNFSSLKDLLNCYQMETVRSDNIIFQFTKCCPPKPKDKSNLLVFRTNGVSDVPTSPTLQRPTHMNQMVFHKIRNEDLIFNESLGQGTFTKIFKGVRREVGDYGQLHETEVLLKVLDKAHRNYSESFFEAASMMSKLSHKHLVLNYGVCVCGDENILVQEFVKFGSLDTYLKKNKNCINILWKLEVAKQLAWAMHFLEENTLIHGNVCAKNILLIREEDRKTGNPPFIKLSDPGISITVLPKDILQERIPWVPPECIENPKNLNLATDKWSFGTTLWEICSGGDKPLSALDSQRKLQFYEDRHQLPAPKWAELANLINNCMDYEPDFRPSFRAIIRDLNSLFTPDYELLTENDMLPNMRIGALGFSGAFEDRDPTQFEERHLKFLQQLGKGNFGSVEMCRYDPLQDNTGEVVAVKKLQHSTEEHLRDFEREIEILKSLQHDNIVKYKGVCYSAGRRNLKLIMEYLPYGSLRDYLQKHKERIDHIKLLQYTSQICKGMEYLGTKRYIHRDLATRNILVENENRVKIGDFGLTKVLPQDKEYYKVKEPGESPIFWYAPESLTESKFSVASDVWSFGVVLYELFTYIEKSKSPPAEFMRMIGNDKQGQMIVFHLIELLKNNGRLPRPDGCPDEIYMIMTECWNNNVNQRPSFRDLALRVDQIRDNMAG
Each entry below carries its recorded GI50.
endpoint: GI50

In [3]: df
Out[3]:
                                   compound  endpoint  value_observed
0  CCn1ccc2scc(Nc3cc(Nc4ccc(F)cn4)ncc3C(=O)NC)c2c1=O [Example 18]      GI50         > 20 µM
1  CNC(=O)c1cnc(NC(=O)C2CC2)cc1Nc1cn(C)c2c(F)cn(C)c(=O)c12 [Example 14]      GI50         > 20 µM
2  CNC(=O)c1cnc(Nc2ccc(F)cn2)cc1Nc1csc2ccn(C)c(=O)c12 [Example 15]      GI50         > 20 µM
3  [2H]C([2H])([2H])NC(=O)c1cnc(Nc2ccc(C#N)cc2)nc1Nc1cccc(-c2ncn(C)n2)c1OC [Example 28]      GI50         > 20 µM
4  [2H]C([2H])([2H])NC(=O)c1cnc(Nc2ccc(F)cc2)nc1Nc1cccc(-c2ncn(C)n2)c1OC [Example 20]      GI50         1.18 µM
5  CCC(=O)c1cnc(Nc2ccc(F)cc2)nc1Nc1cccc(-c2ncn(C)n2)c1OC [Example 8]      GI50         7.47 µM
6  CCn1ccc2c(c(Nc3cc(Nc4ccc(F)cn4)ncc3C(=O)NC)cn2C)c1=O [Example 10]      GI50         3.73 µM
7  CNC(=O)c1cnc2nc1Nc1cc(cc(-c3ncn(C)n3)c1OC)COCc1cc(ccc1F)N2 [Example 36]      GI50        0.892 µM

* * *

target: Ba/F3-FL-TYK2-P760L cells (Homo sapiens, UniProt P29597, P760L, cells depend on it); construct: BaF3-FL-T2P760L (nM); test: Anti-proliferative assay, Ba/F3-FL-TYK2-P760L cells (Cell-Titer Glo); format: cell-based; settings: 72 h, read-out: BaF3-FL-T2P760L IC50
Sequence (P29597 whole entry P760L): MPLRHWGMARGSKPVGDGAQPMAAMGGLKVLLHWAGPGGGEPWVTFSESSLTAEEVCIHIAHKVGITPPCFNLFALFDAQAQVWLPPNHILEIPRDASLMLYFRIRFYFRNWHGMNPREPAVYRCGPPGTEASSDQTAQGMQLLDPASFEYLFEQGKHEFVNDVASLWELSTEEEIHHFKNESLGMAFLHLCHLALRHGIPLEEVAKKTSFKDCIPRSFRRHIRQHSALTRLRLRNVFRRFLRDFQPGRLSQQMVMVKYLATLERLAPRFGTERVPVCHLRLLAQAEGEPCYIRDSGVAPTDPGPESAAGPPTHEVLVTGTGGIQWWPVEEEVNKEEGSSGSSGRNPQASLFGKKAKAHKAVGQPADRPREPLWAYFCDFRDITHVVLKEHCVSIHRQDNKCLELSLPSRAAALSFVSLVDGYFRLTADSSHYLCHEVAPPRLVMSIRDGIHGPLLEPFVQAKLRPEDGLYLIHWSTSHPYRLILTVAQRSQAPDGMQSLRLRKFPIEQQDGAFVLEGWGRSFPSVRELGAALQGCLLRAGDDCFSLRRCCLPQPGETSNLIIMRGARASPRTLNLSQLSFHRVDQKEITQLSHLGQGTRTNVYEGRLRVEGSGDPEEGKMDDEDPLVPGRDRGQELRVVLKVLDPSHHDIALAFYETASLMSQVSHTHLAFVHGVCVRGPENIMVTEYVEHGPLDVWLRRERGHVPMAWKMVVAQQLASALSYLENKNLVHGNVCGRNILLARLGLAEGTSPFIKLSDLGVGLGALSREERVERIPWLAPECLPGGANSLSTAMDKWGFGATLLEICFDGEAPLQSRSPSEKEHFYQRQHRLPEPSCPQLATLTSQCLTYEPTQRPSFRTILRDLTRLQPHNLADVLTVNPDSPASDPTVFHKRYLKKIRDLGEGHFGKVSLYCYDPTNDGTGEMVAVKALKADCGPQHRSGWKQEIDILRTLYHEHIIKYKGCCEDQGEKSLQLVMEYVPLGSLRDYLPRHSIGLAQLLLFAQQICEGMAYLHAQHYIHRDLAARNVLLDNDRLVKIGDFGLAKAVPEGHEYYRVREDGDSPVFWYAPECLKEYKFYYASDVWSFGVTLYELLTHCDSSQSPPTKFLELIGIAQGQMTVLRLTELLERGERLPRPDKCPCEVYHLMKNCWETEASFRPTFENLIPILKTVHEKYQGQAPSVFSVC
Each entry below carries its recorded GI50.
endpoint: GI50 (nM)

>>> print(df.to_string())
                                    compound  endpoint  operator  value_observed
 0  [2H]C([2H])([2H])NC(=O)c1cnc(NC(=O)C2CC2)cc1Nc1ncc2cnn(C3CC3)c2c1OC [Example 267]      GI50         =             227
 1  [2H]C([2H])([2H])NC(=O)c1cnc(NC(=O)C2CC2)cc1Nc1csc2c(C)nn(CC)c(=O)c12 [Example 187]      GI50         =             442
 2  [2H]C([2H])([2H])NC(=O)c1nnc(NC(=O)C2CC2)cc1Nc1cn(C)c2ccn(CC)c(=O)c12 [Example 223]      GI50         =            82.7
 3  [2H]C([2H])([2H])NC(=O)c1cnc2cc1Nc1cc(cc(-c3ncc(F)cn3)c1OC)COCc1nc(ccc1F)N2 [Example 86]      GI50         =             139
 4  [2H]C([2H])([2H])NC(=O)c1cnc(NC(=O)C2CC2)cc1Nc1cn(C)c2c(F)cn(CC(F)F)c(=O)c12 [Example 158]      GI50         =            68.4
 5  [2H]C([2H])([2H])NC(=O)c1nnc2cc1Nc1cc(cc(-c3ccn(C4CC4)n3)c1OC)COCc1cc(F)cc(n1)N2 [Example 94]      GI50         =             293
 6  [2H]C([2H])([2H])NC(=O)c1cnc(NC(=O)C2CC2)cc1Nc1ccc2c(c(CC)nn2C)c1OC [Example 150]      GI50         =             231
 7  [2H]C([2H])([2H])NC(=O)c1cnc(NC(=O)[C@@H]2C[C@H]2F)cc1Nc1ccc2cnn(CC)c2c1OC (relative stereo) [Example 241]      GI50         =             161
 8  [2H]C([2H])([2H])NC(=O)c1cnc(NC(=O)C2CC2)cc1Nc1ccn2ncc(C3CC3)c2c1OC [Example 250]      GI50         =             160
 9  [2H]C([2H])([2H])NC(=O)c1cnc(Nc2ccc(F)cc2)nc1Nc1csc2ccn(C)c(=O)c12 [Example 29]      GI50         >           20000
10  [2H]C([2H])([2H])NC(=O)c1cnc(NC(=O)C2CC2)cc1Nc1ccc2cnn(CC(F)F)c2c1OC [Example 131]      GI50         =            65.4
11  CCN1CCc2scc(Nc3cc(NC(=O)C4CC4)ncc3C(=O)NC)c2C1=O [Example 39]      GI50         =            88.1
12  [2H]C([2H])([2H])NC(=O)c1cnc(Nc2ccc(F)cn2)cc1Nc1nn(C)c2ccn(CC)c(=O)c12 [Example 139]      GI50         =            33.1
13  [2H]C([2H])([2H])NC(=O)c1cnc(NC(=O)C2(C(F)(F)F)CC2)cc1Nc1cn(C)c2ccn(CC)c(=O)c12 [Example 104]      GI50         =            2420
14  CNC(=O)c1cnc(NC(=O)C2CC2)cc1Nc1cn(C)c2ncn([C@@H](C)C(F)(F)F)c(=O)c12 (single isomer, unassigned) [Example 234B]      GI50         =             599
15  [2H]C([2H])([2H])NC(=O)c1cnc(Nc2ccn(C)n2)cc1Nc1cc(F)c2cnn(CC)c2c1OC [Example 151]      GI50         =            77.7
16  [2H]C([2H])([2H])NC(=O)c1nnc(NC(=O)C2CC2)cc1Nc1ccc2cnn(CC)c2c1OC [Example 144]      GI50         =             344
17  COC(=O)c1cnc(NC(=O)C2CC2)cc1Nc1cn(C)c2ccn(C)c(=O)c12 [Example 116]      GI50         =             102
18  [2H]C([2H])([2H])NC(=O)c1cnc(NC(=O)C2CC2)cc1Nc1cn(C)c2ccn(C3CCC3)c(=O)c12 [Example 111]      GI50         =             154
19  [2H]C([2H])([2H])NC(=O)c1nnc2cc1Nc1cc(cc(-c3ncn(C4CC4)n3)c1OC)COCc1nc(ccc1F)N2 [Example 82]      GI50         =            64.3
20  [2H]C([2H])([2H])NC(=O)c1cnc(NC(=O)[C@H]2C[C@H](C#N)C2)cc1Nc1ccc2cnn(CC)c2c1OC [Example 128B]      GI50         =            1710

* * *

test: Microsomal metabolic stability assay; format: in vitro ADME; conditions: pH 7.4; dog liver microsomes, 0.5 mg/mL protein, 1 μM compound; read-out: Dog LM Clint

compound	microsomal CLint at 1 μM / µL/min/mg
[2H]C([2H])([2H])NC(=O)c1nnc2cc1Nc1cc(cc(-c3ncn(C)n3)c1OC)COCc1cc(F)cc(n1)N2	5.63
[2H]C([2H])([2H])NC(=O)c1cnc(NC(=O)C2CC2)cc1Nc1cn(C)c2c(F)cn(CC(F)(F)F)c(=O)c12	18.7
[2H]C([2H])([2H])NC(=O)c1nnc(NC(=O)C2CC2)cc1Nc1csc2ccn(CC)c(=O)c12	20.8
[2H]C([2H])([2H])NC(=O)c1cnc2nc1Nc1cc(cc(-c3ncn(C)n3)c1OC)COCc1cc(ccc1F)N2	12.3
[2H]C([2H])([2H])NC(=O)c1cnc(NC(=O)C2CC2)cc1Nc1cn(C)c2ncn([C@H](C)C(F)(F)F)c(=O)c12 (single isomer, unassigned) [Example 234A]	10.9
[2H]C([2H])([2H])NC(=O)c1cnc(NC(=O)C2CC2)cc1Nc1ccc2cnn(CC(F)(F)F)c2c1OC	48.6
[2H]C([2H])([2H])NC(=O)c1cnc(NC(=O)C2CC2)cc1Nc1ccc2cnn(CC)c2c1OC	66.8
[2H]C([2H])([2H])NC(=O)c1cnc(Nc2ccc(F)cn2)cc1Nc1ncc2cnn(CC)c2c1OC	97.2
CCn1ccc2c(c(Nc3cc(NC(=O)C4CC4)nnc3C(=O)NC)cn2C)c1=O	21.4
[2H]C([2H])([2H])NC(=O)c1cnc(Nc2ccc(F)cn2)cc1Nc1ccc2cnn(C([2H])([2H])[2H])c2c1OC	93.8
CCn1ccc2c(c(Nc3cc(Nc4ccc(F)cn4)ncc3C(=O)NC)cn2C)c1=O	27.1
